Hello, the source for this data is ChEMBL document CHEMBL4177701, in case you need it.

Tested on: Acinetobacter baumannii ATCC 19606 = CIP 70.34 = JCM 6841
PROTOCOL: Binding affinity to Acinetobacter baumannii 2208 ATCC 19606 FabI by SPR assay
Activity calls are given as the source filed them. The rule behind the calls is not given here.
MEASURE: Activity

Here's what some known entries look like.
COc1ccccc1C1CCN(C(=O)Cc2ccccc2Cl)C1 (racemic) : Active
CC(=O)Nc1ccc(CC(=O)N2CCC(c3nccs3)C2)cc1 (racemic) : Active
CC(=O)Nc1ccc(CC(=O)N2CCC(c3ccc4c(c3)OCO4)C2)cc1 (racemic) : Active
O=C(Cc1c(F)cccc1Cl)N1CCC(c2ccc3c(c2)OCO3)C1 (racemic) : Active
O=C(Cc1ccccc1Cl)N1CCC(c2ccc3c(c2)OCO3)C1 (racemic) : Active

Task: For Acinetobacter baumannii ATCC 19606 = CIP 70.34 = JCM 6841, give Activity of the listed compound: O=C(Cc1ccccc1F)N1CCC(c2ccc3c(c2)OCO3)C1 (racemic)
Result: Active

Task: Report value: Activity, system: Acinetobacter baumannii ATCC 19606 = CIP 70.34 = JCM 6841, compound: COc1ccccc1C1CCN(C(=O)Cc2c(F)cccc2F)C1 (racemic)
Result: Active

Task: Provide Acinetobacter baumannii ATCC 19606 = CIP 70.34 = JCM 6841 Activity reading for CC(C)S(=O)(=O)c1ccc(CC(=O)N2CCC(c3ccc4c(c3)OCO4)C2)cc1 (racemic) .
Result: Active

Task: Give Activity only, for O=C(Cc1c(F)cccc1F)N1CCC(c2ccc3c(c2)OCO3)C1 (racemic) , using Acinetobacter baumannii ATCC 19606 = CIP 70.34 = JCM 6841 data.
Result: Active

Task: Return reported Activity for target or system Acinetobacter baumannii ATCC 19606 = CIP 70.34 = JCM 6841, item CC(=O)Nc1ccc(/C=C/C(=O)N2CCC(c3nccs3)C2)cn1 (racemic) .
Result: Active

Task: For Acinetobacter baumannii ATCC 19606 = CIP 70.34 = JCM 6841, give the measured Activity of the entry O=C(Cc1ccccc1F)N1CCC(c2ccccc2)C1 (racemic)
Result: Active

Task: Identify measured Activity obtained with Acinetobacter baumannii ATCC 19606 = CIP 70.34 = JCM 6841 for O=C(Cc1c(F)cccc1F)N1CCC(c2ccccc2)C1 (racemic) .
Result: Active

Task: Report the value of Activity obtained on Acinetobacter baumannii ATCC 19606 = CIP 70.34 = JCM 6841 for COc1ccccc1C1CCN(C(=O)/C=C/c2ccc(NC(C)=O)nc2)C1 (racemic) .
Result: Active

Task: Provide Acinetobacter baumannii ATCC 19606 = CIP 70.34 = JCM 6841 Activity reading for O=C(Cc1cccc(F)c1F)N1CCC(c2ccc3c(c2)OCO3)C1 (racemic) .
Result: Active

Task: Give Acinetobacter baumannii ATCC 19606 = CIP 70.34 = JCM 6841 Activity for the following compound: O=C(Cc1cccc(F)c1F)N1CCC(c2ccccc2)C1 (racemic)
Result: Active

Task: System Acinetobacter baumannii ATCC 19606 = CIP 70.34 = JCM 6841. Read-out Activity. Item COc1ccccc1C1CCN(C(=O)Cc2ccccc2F)C1 (racemic) . Report value.
Result: Active

Task: Given CC(=O)Nc1ccc(CC(=O)N2CCC(c3ccccc3)C2)cc1 (racemic) , report its Activity on Acinetobacter baumannii ATCC 19606 = CIP 70.34 = JCM 6841.
Result: Active

Task: GET Activity where system = Acinetobacter baumannii ATCC 19606 = CIP 70.34 = JCM 6841 and item = O=C(Cc1ccccc1Cl)N1CCC(c2nccs2)C1 (racemic)
Result: Active

Task: Write down measured Activity (Acinetobacter baumannii ATCC 19606 = CIP 70.34 = JCM 6841) for this compound. CC(=O)Nc1ccc(/C=C/C(=O)N2CCC(c3ccccn3)C2)cn1 (racemic)
Result: Active

Task: Specify Activity for COc1ccc(C2CCN(C(=O)/C=C/c3ccc(NC(C)=O)nc3)C2)cc1 (racemic) , system Acinetobacter baumannii ATCC 19606 = CIP 70.34 = JCM 6841.
Result: Active

Task: Give Activity for O=C(Cc1ccccc1Cl)N1CCC(c2ccccc2)C1 (racemic) tested on Acinetobacter baumannii ATCC 19606 = CIP 70.34 = JCM 6841.
Result: Active

Task: Give the observed Activity of CC(=O)Nc1ccc(/C=C/C(=O)N2CCC(c3ccc4c(c3)OCO4)C2)cn1 (racemic) for Acinetobacter baumannii ATCC 19606 = CIP 70.34 = JCM 6841.
Result: Active

Task: Provide measured Activity on Acinetobacter baumannii ATCC 19606 = CIP 70.34 = JCM 6841 for COc1ccc(C2CCN(C(=O)Cc3ccc(NC(C)=O)cc3)C2)cc1 (racemic) please.
Result: Active

Task: Please report the measured Activity for CC(=O)Nc1ccc(/C=C/C(=O)N2CCC(c3ccccc3)C2)cn1 (racemic) tested on Acinetobacter baumannii ATCC 19606 = CIP 70.34 = JCM 6841.
Result: Active

Task: Recall the reported Activity of O=C(Cc1ccccc1Cl)N1CCC(c2ccccn2)C1 (racemic) when tested on Acinetobacter baumannii ATCC 19606 = CIP 70.34 = JCM 6841.
Result: Active

Task: Report measured Activity on Acinetobacter baumannii ATCC 19606 = CIP 70.34 = JCM 6841; entry: COc1ccccc1C1CCN(C(=O)Cc2ccc(NC(C)=O)cc2)C1 (racemic)
Result: Active

Task: Under Acinetobacter baumannii ATCC 19606 = CIP 70.34 = JCM 6841, report Activity for COc1ccccc1C1CCN(C(=O)/C=C/c2ccc(NC(C)=O)cc2)C1 (racemic)
Result: Active

Task: Report its Activity with Acinetobacter baumannii ATCC 19606 = CIP 70.34 = JCM 6841 as the test system: COc1ccccc1C1CCN(C(=O)Cc2cccc(F)c2F)C1 (racemic)
Result: Active

Task: Please report the measured Activity for COc1ccc(C2CCN(C(=O)Cc3ccccc3Cl)C2)cc1 (racemic) tested on Acinetobacter baumannii ATCC 19606 = CIP 70.34 = JCM 6841.
Result: Active

---

The entries below are paired with their reported IC50.
Tested on: HepG2
PROTOCOL: Cytotoxicity against human HepG2 cells assessed as reduction in cell viability after 24 hrs in presence of 10% FBS by MTT assay
Type: cell-based
CONDITION SUMMARY: HepG2, 24 h
The answer is to be given in µg/mL; state only the numeric part.

Some solved cases for reference:
COc1ccccc1C1CCN(C(=O)/C=C/c2ccc(NC(C)=O)nc2)C1 (racemic) : 219
COc1ccccc1C1CCN(C(=O)Cc2ccccc2Cl)C1 (racemic) : 75
O=C(Cc1ccccc1F)N1CCC(c2ccccc2)C1 (racemic) : 160
O=C(Cc1ccccc1Cl)N1CCC(c2ccc3c(c2)OCO3)C1 (racemic) : 64
O=C(Cc1ccccc1Cl)N1CCC(c2ccccc2)C1 (racemic) : 79
O=C(Cc1c(F)cccc1F)N1CCC(c2ccccc2)C1 (racemic) : 237
COc1ccccc1C1CCN(C(=O)Cc2c(F)cccc2F)C1 (racemic) : 279

Task: Quote IC50 reported for O=C(Cc1cccc(F)c1F)N1CCC(c2ccccc2)C1 (racemic) please.
Result: 125

---

MEASURED TARGET: Enoyl-[acyl-carrier-protein] reductase [NADPH] FabI (Staphylococcus aureus, UniProt Q6GI75)
Sequence (Q6GI75 whole entry): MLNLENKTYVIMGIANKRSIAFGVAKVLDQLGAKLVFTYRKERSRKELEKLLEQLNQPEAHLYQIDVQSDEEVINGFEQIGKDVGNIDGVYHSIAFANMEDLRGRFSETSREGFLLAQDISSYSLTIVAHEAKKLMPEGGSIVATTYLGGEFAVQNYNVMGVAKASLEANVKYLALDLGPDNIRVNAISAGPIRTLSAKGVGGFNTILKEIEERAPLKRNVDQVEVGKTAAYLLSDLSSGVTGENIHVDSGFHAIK
Please respond with 1 (yes) when measured Ki is strictly beneath 1000 nM, and with 0 (no) in all other cases.

Past entries and their recorded results:
COc1ccccc1C1CCN(C(=O)/C=C/c2ccc(NC(C)=O)nc2)C1 (racemic) : 0 (no)
CC(=O)Nc1ccc(/C=C/C(=O)N2CCC(c3ccc4c(c3)OCO4)C2)cn1 (racemic) : 1 (yes)
CC(=O)Nc1ccc(CC(=O)N2CCC(c3ccccc3)C2)cc1 (racemic) : 0 (no)
O=C(Cc1ccccc1Cl)N1CCC(c2ccc3c(c2)OCO3)C1 (racemic) : 1 (yes)

Task: Consider the molecule O=C(Cc1c(F)cccc1Cl)N1CCC(c2ccc3c(c2)OCO3)C1 (racemic) . Is its Ki strictly less than 1000 nM?
Result: 1 (yes)

Task: Item O=C(Cc1ccccc1F)N1CCC(c2ccccc2)C1 (racemic) : Ki beneath 1000 nM, strictly?
Result: 0 (no)

Task: Please determine if CC(=O)Nc1ccc(CC(=O)N2CCC(c3ccc4c(c3)OCO4)C2)cc1 (racemic) is below 1000 nM in terms of Ki.
Result: 0 (no)

Task: hey, is Ki for COc1ccccc1C1CCN(C(=O)Cc2c(F)cccc2F)C1 (racemic) lower than 1000 nM or not?
Result: 0 (no)

Task: A record lists COc1ccccc1C1CCN(C(=O)Cc2ccc(NC(C)=O)cc2)C1 (racemic) . Is its Ki below 1000 nM?
Result: 0 (no)
